- Target: JAK3 (Homo sapiens, UniProt P52333)
- Sequence (P52333 1-1124): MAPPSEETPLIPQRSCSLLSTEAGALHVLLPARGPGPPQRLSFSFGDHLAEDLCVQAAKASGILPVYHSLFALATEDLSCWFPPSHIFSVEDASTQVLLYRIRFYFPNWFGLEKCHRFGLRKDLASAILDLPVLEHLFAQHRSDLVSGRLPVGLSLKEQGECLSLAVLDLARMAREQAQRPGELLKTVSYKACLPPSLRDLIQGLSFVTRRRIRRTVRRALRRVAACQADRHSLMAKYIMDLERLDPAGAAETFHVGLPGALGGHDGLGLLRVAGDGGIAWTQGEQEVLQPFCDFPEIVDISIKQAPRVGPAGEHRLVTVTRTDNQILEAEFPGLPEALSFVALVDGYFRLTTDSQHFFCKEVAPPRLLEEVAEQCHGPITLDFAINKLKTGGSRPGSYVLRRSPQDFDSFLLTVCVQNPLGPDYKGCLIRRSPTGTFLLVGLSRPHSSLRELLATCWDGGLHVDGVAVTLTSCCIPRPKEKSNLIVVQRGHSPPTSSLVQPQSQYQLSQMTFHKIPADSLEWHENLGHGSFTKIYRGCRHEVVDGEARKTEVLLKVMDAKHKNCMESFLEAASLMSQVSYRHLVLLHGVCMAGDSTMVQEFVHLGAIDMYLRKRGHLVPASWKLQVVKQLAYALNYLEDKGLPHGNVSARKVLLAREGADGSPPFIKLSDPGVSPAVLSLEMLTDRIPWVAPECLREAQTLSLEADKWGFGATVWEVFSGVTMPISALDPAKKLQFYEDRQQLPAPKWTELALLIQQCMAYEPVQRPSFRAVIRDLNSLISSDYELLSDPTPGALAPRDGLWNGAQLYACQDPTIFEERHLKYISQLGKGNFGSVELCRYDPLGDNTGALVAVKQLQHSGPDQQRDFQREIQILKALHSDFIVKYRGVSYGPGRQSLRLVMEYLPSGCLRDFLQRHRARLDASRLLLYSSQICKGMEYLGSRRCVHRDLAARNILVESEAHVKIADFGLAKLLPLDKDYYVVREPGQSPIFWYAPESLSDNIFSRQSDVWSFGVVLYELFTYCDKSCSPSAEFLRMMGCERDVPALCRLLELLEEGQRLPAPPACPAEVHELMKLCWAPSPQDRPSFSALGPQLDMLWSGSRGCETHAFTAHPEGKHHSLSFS
- Method summary: biochemical
- Measurement parameters: read-out: JAK3 Ki value
Metric name: Ki

> print(dat)
                                    compound                               target  observed.measurement
 1  CCC(=O)Nc1ccc(Sc2nc(Nc3cc(C)[nH]n3)cc(N3CCC3)n2)cc1 [Compound 14]  JAK3 (Homo sapiens, UniProt P52333)          10 to 500 nM
 2  Cc1cnc(Nc2cc(N3CC(O)C3)nc(Sc3ccc(NC(=O)C4CC4)cc3)n2)s1 [Compound 3]  JAK3 (Homo sapiens, UniProt P52333)          10 to 500 nM
 3  Cc1cc(Nc2cc(N3CC(C)(O)C3)nc(Sc3ccc(NC(=O)c4ccccc4Cl)cc3)n2)[nH]n1 [Compound 50]  JAK3 (Homo sapiens, UniProt P52333)               ≤ 10 nM
 4  COCc1cc(Nc2cc(N3CCC3)nc(Sc3ccc(NC(=O)c4ccccc4Cl)cc3)n2)n[nH]1 [Compound 82]  JAK3 (Homo sapiens, UniProt P52333)        500 to 2000 nM
 5  Cc1cc(Nc2cc(N3CCC3)nc(Sc3ccc(NC(=O)Cc4cccc(Cl)c4)cc3)n2)[nH]n1 [Compound 58]  JAK3 (Homo sapiens, UniProt P52333)        500 to 2000 nM
 6  Cc1cc(Nc2cc(N3CC(F)(C4CC4)C3)nc(Sc3ccc(C(=O)NCC(F)(F)F)cc3)n2)[nH]n1 [Compound 205]  JAK3 (Homo sapiens, UniProt P52333)          10 to 500 nM
 7  CCCNC(=O)Nc1ccc(Sc2nc(Nc3cc(C)[nH]n3)cc(N3CCC3)n2)cc1 [Compound 73]  JAK3 (Homo sapiens, UniProt P52333)        500 to 2000 nM
 8  Cc1cc(Nc2cc(N3CCC3)nc(Sc3cccc(NC(=O)c4ccccc4Cl)c3)n2)[nH]n1 [Compound 49]  JAK3 (Homo sapiens, UniProt P52333)          10 to 500 nM
 9  Cc1cc(Nc2cc(N3CC(C)C3)nc(Sc3ccc(NC(=O)c4ccccc4Cl)cc3)n2)n[nH]1 [Compound 39]  JAK3 (Homo sapiens, UniProt P52333)          10 to 500 nM
10  CC1=NN=C(Nc2cc(N3CCC3)nc(Sc3ccc(NC(=O)c4ccccc4Cl)cc3)n2)C1 [Compound 5]  JAK3 (Homo sapiens, UniProt P52333)          10 to 500 nM
11  Cc1cc(Nc2cc(N3CCC3)nc(Sc3ccc(NC(=O)c4cccc(C)c4Cl)cc3)n2)n[nH]1 [Compound 161]  JAK3 (Homo sapiens, UniProt P52333)               ≤ 10 nM
12  Cc1cc(Nc2cc(N3CC(N4CC[C@H](F)C4)C3)nc(Sc3ccc4ncccc4c3)n2)n[nH]1 [Compound 160]  JAK3 (Homo sapiens, UniProt P52333)               ≤ 10 nM
13  CCC(=O)Nc1ccc(Sc2nc(Nc3cc(C)n[nH]3)cc(N3CC(C)(C#N)C3)n2)cc1 [Compound 79]  JAK3 (Homo sapiens, UniProt P52333)          10 to 500 nM
14  CCC(=O)Nc1ccc(Sc2nc(Nc3cc(C)n[nH]3)cc(N3CC(C)(O)C3)n2)cc1 [Compound 71]  JAK3 (Homo sapiens, UniProt P52333)          10 to 500 nM
15  Cc1cc(Nc2cc(N3CCC3)nc(Sc3ccc(NC(=O)C(F)(F)F)cc3)n2)[nH]n1 [Compound 158]  JAK3 (Homo sapiens, UniProt P52333)               ≤ 10 nM
16  Cc1cc(Nc2cc(N3CC(F)(C4CC4)C3)nc(Sc3ccc4nc(C(F)(F)F)cn4c3)n2)[nH]n1 [Compound 190]  JAK3 (Homo sapiens, UniProt P52333)          10 to 500 nM

Data provenance is patent US8637511B2.
